Data origin: PubChem BioAssay (NCATS)

Test: Quantitative High-Throughput drug screen in 47 multiple myeloma cell lines against the NCATS MIPE library collection: XG1_PLB cell viability assay (AID 1919866); note: nearly all actives have a fitted effect of over 35% in size
Conditions: CellTiter-Glo ATP, 48 h; series mostly up to 45.8 µM
Text: PI: Beverly A. Mock Ph.D. Laboratory of Cancer Biology and Genetics, Center for Cancer Research, National Cancer Institute, National Institute of Health, Bethesda, Maryland […] 5; Detector; 425V; Luminescence; Viewlux PerkinElmer. […] 1. […] Briefly, the corresponding myeloma cell lines were screened in 1,536-well plates with 500 cells, 5-uL per well for inhibition of cell viability (assessed by measuring ATP levels with CellTiterGlo). […]
Results filed as inconclusive are left out. Calls of active or inactive are those of the source. Calls come from the whole dose curve; as a rule, active = well fitted cell-killing curve with a large enough effect; inconclusive = small, poorly fitted or top-dose-only effect, or effect the other way; inactive = no such curve, though single readings can be large or run the other way.
Parameter call: string, one of active, inactive

IN: Which outcome did this test record for the compound Cc1cc(C(C)(C)C)cc(C)c1CC1=NCCN1 ?
OUT: inactive

IN: Which outcome did this test record for the compound COc1ccccc1N1CCN(CC(O)COc2cccc3ccccc23)CC1 (stereo not given) ?
OUT: inactive

IN: Which outcome did this test record for the compound CN1C(C(=O)Nc2ccccn2)=C(O)c2ccccc2S1(=O)=O ?
OUT: inactive

IN: Which outcome did this test record for the compound C[C@H]1c2cccc(O)c2C(O)=C2C(=O)[C@]3(O)C(O)=C(C(N)=O)C(=O)[C@@H](N(C)C)[C@@H]3[C@@H](O)[C@@H]21 ?
OUT: active

IN: Which outcome did this test record for the compound CC(C)(Oc1ccc(C2CC2(Cl)Cl)cc1)C(=O)O (stereo not given) ?
OUT: inactive

IN: Which outcome did this test record for the compound Cn1c(=O)c2c(ncn2C)n(C)c1=O ?
OUT: inactive

IN: Which outcome did this test record for the compound COc1ccc2[nH]cc(CCNC(C)=O)c2c1 ?
OUT: inactive

IN: Which outcome did this test record for the compound CC#C[C@]1(O)CC[C@H]2[C@@H]3CCC4=CC(=O)CCC4=C3[C@@H](c3ccc(N(C)C)cc3)C[C@@]21C ?
OUT: active

IN: Which outcome did this test record for the compound CN(Cc1cnc2nc(N)nc(N)c2n1)c1ccc(C(=O)N[C@@H](CCC(=O)O)C(=O)O)cc1 ?
OUT: active

IN: Which outcome did this test record for the compound O=C(C1CCCCC1)N1CC(=O)N2CCc3ccccc3C2C1 (stereo not given) ?
OUT: active

---

assay: Drug repurposing screens with cells derived from glioblastoma tumor samples (AID 1345199); conditions: GBM patient neurospheres viability, ATP luminescence, 48 h; at 45.9 µM (top of the series); tumour line D; note: % is set by controls: 0 for no effect and ±100 for the full control effect; nearly all actives have a fitted effect of over 40% in size
Records with an inconclusive call do not appear.
Measured property: activity, negative = cell killing (%)
API: value field is a number in %; no unit string.

activity, negative = cell killing for Cc1ccc(C(=O)Nc2ccc(S(=O)(=O)O)c3cc(S(=O)(=O)O)cc(S(=O)(=O)O)c23)cc1NC(=O)c1cccc(NC(=O)Nc2cccc(C(=O)Nc3cc(C(=O)Nc4ccc(S(=O)(=O)O)c5cc(S(=O)(=O)O)cc(S(=O)(=O)O)c45)ccc3C)c2)c1 is -0.172

activity, negative = cell killing for CC(=O)OCC(CCn1cnc2cnc(N)nc21)COC(C)=O is -3.4

activity, negative = cell killing for Nc1nnc(-c2cccc(Cl)c2Cl)c(N)n1 is -13.4

activity, negative = cell killing for CC12CC3CC(C)(C1)CC(N)(C3)C2 is -1.27

---

assay: NFAT Signaling Pathway (AID 444); conditions: Jurkat NFAT-bla M1, carbachol, beta-lactamase ratio, 5 h; at 17.2 µM (top of the series);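 note: carbachol stimulus at about its EC50 of 1 µM final; % is set by controls: 0 for no effect and ±100 for the full control effect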
Inconclusive results are not listed. Active and inactive are the calls of the source. Calls follow the shape of the dose curve; as a rule, active = well fitted curve in either direction with a large enough effect (not every such curve was filed as active); inconclusive = small, poorly fitted or top-dose-only effect, or another doubt; inactive = flat fitted curve, though single readings scatter.
Parameter call: string, one of active, inactive

IN: Which outcome did this test record for the compound COc1nc(C)nc(Cl)c1NC1=NCCN1 ?
OUT: inactive

IN: Which outcome did this test record for the compound CN1CCC(=C2c3ccccc3C=Cc3ccccc32)CC1 ?
OUT: active

IN: Which outcome did this test record for the compound Nc1nc2c(ncn2COC(CO)CO)c(=O)[nH]1 ?
OUT: inactive

IN: Which outcome did this test record for the compound CC[N+](CC)(CC)CCOc1cccc(OCC[N+](CC)(CC)CC)c1OCC[N+](CC)(CC)CC ?
OUT: inactive

IN: Which outcome did this test record for the compound O=C(Nc1ccc([N+](=O)[O-])cc1Cl)c1cc(Cl)ccc1O ?
OUT: active

IN: Which outcome did this test record for the compound NCCCCCC(=O)O ?
OUT: inactive

---

Experiment: Quantitative High-Throughput drug screen in 47 multiple myeloma cell lines against the NCATS MIPE library collection: OPM2_DSMZ cell viability assay (AID 1919872); note: nearly all actives have a fitted effect of over 30% in size
Conditions: OPM2 myeloma viability, CellTiter-Glo ATP luminescence, 48 h; series mostly up to 45.8 µM
From the text: PI: Beverly A. Mock Ph.D. Laboratory of Cancer Biology and Genetics, Center for Cancer Research, National Cancer Institute, National Institute of Health, Bethesda, Maryland […] 5; Detector; 425V; Luminescence; Viewlux PerkinElmer. […] 1. […] Briefly, the corresponding myeloma cell lines were screened in 1,536-well plates with 500 cells, 5-uL per well for inhibition of cell viability (assessed by measuring ATP levels with CellTiterGlo). […]
Inconclusive results are not listed. The source made the active and inactive calls. Calls follow the shape of the dose curve; as a rule, active = well fitted cell-killing curve with a large enough effect; inconclusive = small, poorly fitted or top-dose-only effect, or effect the other way; inactive = no such curve, though single readings can be large or run the other way.
Parameter call: string, one of Yes for active, No for inactive

IN: Which outcome did this test record for the compound Nc1nc2c(ncn2COC(CO)CO)c(=O)[nH]1 ?
OUT: Yes

IN: Which outcome did this test record for the compound Clc1ccc2nsnc2c1NC1=NCCN1 ?
OUT: No

IN: Which outcome did this test record for the compound N[C@@H](Cc1c[nH]c2ccc(O)cc12)C(=O)O ?
OUT: No

IN: Which outcome did this test record for the compound CN(C)CCC=C1c2ccccc2C=Cc2ccccc21 ?
OUT: No

IN: Which outcome did this test record for the compound C[C@](N)(Cc1ccc(O)c(O)c1)C(=O)O ?
OUT: Yes

IN: Which outcome did this test record for the compound CN(C)CCOC(c1ccccc1)c1ccccc1 ?
OUT: No

IN: Which outcome did this test record for the compound OCCN1CCN(CCCN2c3ccccc3Sc3ccc(C(F)(F)F)cc32)CC1 ?
OUT: No

IN: Which outcome did this test record for the compound Nc1ccn([C@H]2CC[C@@H](CO)O2)c(=O)n1 ?
OUT: No

IN: Which outcome did this test record for the compound Cc1cn([C@H]2C[C@H](N=[N+]=[N-])[C@@H](CO)O2)c(=O)[nH]c1=O ?
OUT: No

IN: Which outcome did this test record for the compound CS(=O)(=O)CCNCc1ccc(-c2ccc3ncnc(Nc4ccc(OCc5cccc(F)c5)c(Cl)c4)c3c2)o1 ?
OUT: Yes

IN: Which outcome did this test record for the compound CN(CCOc1ccc(NS(C)(=O)=O)cc1)CCc1ccc(NS(C)(=O)=O)cc1 ?
OUT: No

IN: Which outcome did this test record for the compound Cc1ccccc1N1C(=O)c2cc(S(N)(=O)=O)c(Cl)cc2NC1C (stereo not drawn) ?
OUT: No

IN: Which outcome did this test record for the compound Fc1ccc([C@@H]2CCNC[C@H]2COc2ccc3c(c2)OCO3)cc1 ?
OUT: Yes

IN: Which outcome did this test record for the compound NCCCCCC(=O)O ?
OUT: No

IN: Which outcome did this test record for the compound Cc1ccc(-c2cc(C(F)(F)F)nn2-c2ccc(S(N)(=O)=O)cc2)cc1 ?
OUT: No

IN: Which outcome did this test record for the compound NCCS(=O)(=O)O ?
OUT: No

IN: Which outcome did this test record for the compound CN(C)C(=O)C(CCN1CCC(O)(c2ccc(Cl)cc2)CC1)(c1ccccc1)c1ccccc1 ?
OUT: Yes

IN: Which outcome did this test record for the compound Cn1cnc2c1c(=O)[nH]c(=O)n2C ?
OUT: Yes

IN: Which outcome did this test record for the compound COc1ccccc1OCCNCC(O)COc1cccc2[nH]c3ccccc3c12 (stereo not drawn) ?
OUT: No

IN: Which outcome did this test record for the compound CC1COc2c(N3CCN(C)CC3)c(F)cc3c(=O)c(C(=O)O)cn1c23 (stereo not drawn) ?
OUT: No

IN: Which outcome did this test record for the compound CC(C)C(=O)Nc1ccc([N+](=O)[O-])c(C(F)(F)F)c1 ?
OUT: No

IN: Which outcome did this test record for the compound CC(C)NCC(O)c1ccc(O)c(O)c1 (stereo not drawn) ?
OUT: No

IN: Which outcome did this test record for the compound CNCCCC12CCC(c3ccccc31)c1ccccc12 ?
OUT: Yes

IN: Which outcome did this test record for the compound COC(=O)Nc1nc2ccc(C(=O)c3cccs3)cc2[nH]1 ?
OUT: Yes

IN: Which outcome did this test record for the compound CN1C2CCC1CC(OC(=O)C(CO)c1ccccc1)C2 (stereo not drawn) ?
OUT: No

IN: Which outcome did this test record for the compound NS(=O)(=O)c1cc2c(cc1Cl)NCNS2(=O)=O ?
OUT: No

IN: Which outcome did this test record for the compound CC1(C)O[C@H]2CC(=O)OC[C@]23[C@H]2CC[C@@]4(C)[C@H](c5ccoc5)OC(=O)[C@H]5O[C@]54[C@]2(C)C(=O)C[C@@H]13 ?
OUT: No

IN: Which outcome did this test record for the compound CN1CCC(=C2c3ccccc3C=Cc3ccccc32)CC1 ?
OUT: No

IN: Which outcome did this test record for the compound CC(C)(C)C(=O)Oc1ccc(S(=O)(=O)Nc2ccccc2C(=O)NCC(=O)O)cc1 ?
OUT: No

IN: Which outcome did this test record for the compound CC(=O)OCC(CCn1cnc2cnc(N)nc21)COC(C)=O ?
OUT: No

IN: Which outcome did this test record for the compound CN(C)C(=N)N=C(N)N ?
OUT: No

IN: Which outcome did this test record for the compound CCC1(c2ccccc2)C(=O)NCNC1=O ?
OUT: No

IN: Which outcome did this test record for the compound O=c1c(-c2ccc(O)cc2)coc2cc(O)cc(O)c12 ?
OUT: No

IN: Which outcome did this test record for the compound CN1C(C(=O)Nc2ccccn2)=C(O)c2ccccc2S1(=O)=O ?
OUT: No

IN: Which outcome did this test record for the compound NC(=O)OCC(COC(N)=O)c1ccccc1 ?
OUT: No

IN: Which outcome did this test record for the compound CC[C@@]1(O)C(=O)OCc2c1cc1n(c2=O)Cc2cc3c(CN(C)C)c(O)ccc3nc2-1 ?
OUT: Yes

IN: Which outcome did this test record for the compound Clc1ccc2c(c1)C(N1CCNCC1)=Nc1ccccc1O2 ?
OUT: No

IN: Which outcome did this test record for the compound CCOC(=O)C(C)(C)Oc1ccc(Cl)cc1 ?
OUT: No

IN: Which outcome did this test record for the compound CC(C)(Oc1ccc(C2CC2(Cl)Cl)cc1)C(=O)O (stereo not drawn) ?
OUT: No

IN: Which outcome did this test record for the compound O=C(CCCN1CCC(O)(c2ccc(Cl)cc2)CC1)c1ccc(F)cc1 ?
OUT: No

IN: Which outcome did this test record for the compound CC(C(=O)O)c1cccc(C(=O)c2ccccc2)c1 (stereo not drawn) ?
OUT: No

IN: Which outcome did this test record for the compound O=C1c2c(O)ccc(O)c2C(=O)c2c(NCCNCCO)ccc(NCCNCCO)c21 ?
OUT: Yes

IN: Which outcome did this test record for the compound CC(COc1ccccc1)N(CCCl)Cc1ccccc1 (stereo not drawn) ?
OUT: No

IN: Which outcome did this test record for the compound COc1ccccc1OCC(O)CN1CCN(CC(=O)Nc2c(C)cccc2C)CC1 (stereo not drawn) ?
OUT: No

IN: Which outcome did this test record for the compound COc1cc2nc(N3CCN(C(=O)C4COc5ccccc5O4)CC3)nc(N)c2cc1OC (stereo not drawn) ?
OUT: No

IN: Which outcome did this test record for the compound CCOC(=O)Nc1ccc(NCc2ccc(F)cc2)nc1N ?
OUT: No

IN: Which outcome did this test record for the compound CC#C[C@]1(O)CC[C@H]2[C@@H]3CCC4=CC(=O)CCC4=C3[C@@H](c3ccc(N(C)C)cc3)C[C@@]21C ?
OUT: Yes

IN: Which outcome did this test record for the compound O=C(Nc1ccc([N+](=O)[O-])cc1Cl)c1cc(Cl)ccc1O ?
OUT: Yes
